Tested on: 786-0 renal
Assay: NCI-60 one-dose screen, 48 h (100 = growth as untreated, 0 = no growth, -100 = all killed)
Details: 10 µM unless noted
This is part of a sample that, as a whole, favours compounds with a hit. Of some 83,000 tested, about 20% had one in any assay.
// boundary case: growth equal to 70% maps to Criterion not met; strictly smaller maps to Criterion met

molecule	category
Cn1ccc2c3c(ccc21)CC3=O	Criterion not met
CN(C)c1ccc(/C=C/C(=O)c2ccc(-n3cc(CN4CCN(c5cc6c(cc5F)c(=O)c(C(=O)O)cn6C5CC5)CC4)nn3)cc2)cc1	Criterion met
COc1ccc(C/C(C)=C(/c2ccc(OCCN3CCCCC3)cc2)c2ccc(OC(=O)NCc3ccccc3)cc2)cc1	Criterion met
CN1C(=O)/C(=C/c2ccc(C(=O)Nc3ncc(Cc4ccc(Cl)cc4)s3)cc2)SC1=S	Criterion met
O=C1/C(=C/c2cccs2)SC(=S)N1CCCN1CCOCC1	Criterion not met
CCn1c(=S)sc2c(Nc3ccc(F)cc3)nc(-c3cccnc3)nc21	Criterion met
Cc1ccccc1/C=C1\CN(C(=O)OC(C)(C)C)C/C(=C\c2ccccc2C)C1=O	Criterion met
O=C(CSc1nc2ccc([N+](=O)[O-])cc2[nH]1)Nc1ccc(F)cc1	Criterion met
COc1cc(OC)c2sc(-c3ccc(-n4cncc4-c4ccc(OC)c(OC)c4)cc3)nc2c1	Criterion not met
Cn1c(-c2ccc(Br)cc2)c(O)c(=O)c2c(F)cccc21	Criterion met
Cc1ccc(-n2c(=S)[nH]c3sc4c(c3c2=O)CCC(=O)C4)cc1	Criterion met
CCOC(=O)c1nc(Nc2ccc(NC(=O)Nc3ccc(F)cc3)cc2)c2ccccc2n1	Criterion not met
O=C1COCCN1c1ccc(Nc2nc(Cl)nc(OCc3cn(Cc4ccccc4)nn3)n2)cc1	Criterion not met
CC(C)(C)n1cc(-c2ccnc(NCCNS(=O)(=O)c3cccc4ccccc34)c2)c(-c2cccc(F)c2)n1	Criterion met
Cn1cc(-c2nc(-c3c[nH]c4ccncc34)cs2)c2ccccc21	Criterion not met
Cc1noc(C)c1C(=O)OCc1coc2ccccc2c1=O	Criterion met
CN(C)Cc1ccc(NC(=O)c2cncc(C#Cc3cnc(N)c4ncccc34)c2)cc1F	Criterion met
CC1=Nc2cnc(Nc3ccc(OCCN4CCCCC4)cc3)nc2Nc2ccccc21	Criterion met
COc1ccc2[nH]cc(-c3nc(-c4cn(C)c5c(Cl)nccc45)cs3)c2c1	Criterion met
COc1ccc(C(=O)Nc2cccc(C3CC(=O)c4c(cc(OC)c(OC)c4OC)O3)c2)cc1 (stereo not given)	Criterion met
O=C1c2cc(Cl)ccc2S(=O)(=O)c2c(NCCCNCCO)nc3ccccc3c21	Criterion met
O=C(c1ccc(-c2nc(CSc3nc4ccccc4s3)no2)cc1)N1CCSCC1	Criterion not met
COc1ccc(/C=C2\COc3ccc(O)cc3C2=O)c(OC)c1OC	Criterion not met
Cn1cc(-c2csc(-c3c[nH]c4ccc(Br)cc34)n2)c2cnccc21	Criterion met
O=[N+]([O-])C1C(c2ccccc2)C12c1ccccc1-c1ccccc12 (stereo not given)	Criterion met
O=C(O)/C(=C\c1ccc(Cl)cc1)c1ccc(Cl)cc1	Criterion not met
CCOC(=O)c1cc2c(=O)oc3ccccc3c2oc1=O	Criterion not met
Cn1cc(-c2nonc2-c2c[nH]c3ccc(Br)cc23)c2cc(Br)ccc21	Criterion met
COc1ccc(-c2nc(SCC(C)C)nc(N/N=C\c3ccc(F)cc3)c2C#N)cc1	Criterion not met
O=C1/C(=C/c2ccc(-c3ccc(Br)cc3)o2)SC(=S)N1CCc1ccc(O)cc1	Criterion met
CC(C)(C)n1cc(-c2ccnc(NCCCNS(=O)(=O)c3ccc(F)cc3)c2)c(-c2cccc(F)c2)n1	Criterion met
CS(=O)(=O)Nc1cc(-c2ccc3ncnc(Nc4c(Cl)ccc5c4OCO5)c3c2)cnc1Cl	Criterion met
c1cnc2[nH]cc(-c3csc(-c4cn(CCCN5CCOCC5)c5ccccc45)n3)c2c1	Criterion met
COC(=O)/C=C1/SC(=Nc2ccc(C)cc2)N(CCc2c[nH]c3ccc(O)cc23)C1=O	Criterion met
O=C(/C=C/c1cn(-c2ccccc2)nc1-c1ccc([N+](=O)[O-])cc1)c1ccc(Cl)cc1	Criterion met
COP(=O)(OC)C(C)(C)CC(=O)CC(C#N)(C#N)C(C#N)C#N	Criterion not met
O=C1Nc2ccccc2/C1=C\c1nc(-c2ccccc2)n2ccccc12	Criterion not met

* * *

Test system: HOP-62 NSCLC
Assay: NCI-60 one-dose screen, 48 h
Conditions: 10 µM unless noted
About 83,000 compounds went through this panel and 20% of them were active in at least one assay; those are over-represented in the sample as a whole. Active and inactive are the calls of the source. How the source made its calls: active means growth percent below 10; inactive means the rest.
Labels: yes = active, no = inactive

compound	category
CC1=Nc2cnc(Nc3ccc(OCCN4CCCCC4)cc3)nc2Nc2ccccc21	no
CN(CCOc1ccc(C#N)cc1)CCOc1ccc(C#N)cc1	no
c1cnc2[nH]cc(-c3csc(-c4cn(CCCN5CCOCC5)c5ccccc45)n3)c2c1	no
CC1Cc2c(Cl)ncnc2N(C)c2ccc(F)cc21 (stereo not given)	no
OCCNCCCOc1ccc2ncnc(Nc3ccc(Oc4cccc(C(F)(F)F)c4)c(Cl)c3)c2c1	no
O=C1/C(=C/c2ccc(Cl)c(Cl)c2)CN(C(=O)C(Cl)Cl)C/C1=C\c1ccc(Cl)c(Cl)c1	yes
COc1cc2c(c(OC)c1OC)C(=O)CC(c1cccc(NC(=O)c3ccc(Br)cc3)c1)O2 (stereo not given)	no
CN1CCN(Cc2ccc(NC(=O)c3cncc(C#Cc4cnc(N)c5ccccc45)c3)cc2C(F)(F)F)CC1	yes
O=C1Nc2ccccc2[C@]12CC(c1ccccc1)=NN2	no
O=[N+]([O-])c1ccc(-c2nc(N3CCOCC3)c3c4c(sc3n2)CCCC4)cc1	no
COc1cc(OC)cc(C2=C3CC[C@@H]4[C@H](CC[C@]5(C)C(=O)CC[C@@H]45)C3=CC3C(O)c4cccnc4N4C(=O)COC234)c1 (stereo not given in full)	no
N#Cc1cnc(NCCc2ccncc2)nc1-n1cnc2ccccc21	no
Cn1ccc2c3c(ccc21)CC3=O	no
C#CCOc1cccc(Nc2ncnc3c(NC(=O)C=C)cccc23)c1	no
C=C1CC[C@@H]2[C@](C)(COC(C)=O)[C@H](OC(C)=O)CC[C@@]2(C)[C@@H]1CC(Sc1ccccc1)C1=CCOC1=O (stereo not given in full)	yes
Oc1c(Cl)cc(Cl)cc1/C=N/Nc1nnc(N/N=C/c2cc(Cl)cc(Cl)c2O)c2ccccc12	no
CCOC(=O)c1ccc2[nH]c(O)c(C(=Nc3ccc(N(C)C(=O)CN4CCN(C)CC4)cc3)c3ccccc3)c2c1	yes
Fc1ccc(Nc2nc3nonc3nc2Nc2ccc(I)cc2)cc1	yes
Cc1nc(N2CCOCC2)sc1S(N)(=O)=O	no
CCc1nc2c(=O)[nH]cnc2o1	no

* * *

Below, each of the compounds is paired with its reported growth value.
Test system: SF-268 CNS
Test: NCI-60 one-dose screen, 48 h (100 = growth as untreated, 0 = no growth, -100 = all killed)
Settings: 10 µM unless noted
This is part of a sample that, as a whole, favours compounds with a hit. Of some 83,000 tested, about 20% had one in any assay. Calls of active or inactive are those of the source. Rule for the calls: active = growth percent below 10; inactive = the rest.
quantity: growth

compound	assayed-target	measurement
CN(CCn1sc(=O)n(Cc2ccccc2)c1=O)Cc1ccc2c(Cl)cc(Cl)c(O)c2n1	SF-268 CNS	46.1% (inactive)
COc1cc(-c2cc(-c3cccs3)c(C#N)c(N3CCOCC3)n2)cc(OC)c1OC	SF-268 CNS	113% (inactive)
CN(C)CCNC(=O)c1cccc(-c2cnc3ccc(-c4ccc5c(c4)OCO5)nn23)c1	SF-268 CNS	76.7% (inactive)
COC(=O)c1c2c(c(C)[n+]([O-])c1C)C(=O)C(NCc1ccc(Cl)cc1)=CC2=O	SF-268 CNS	76.8% (inactive)
CCn1cc(C(=O)N/N=C/c2cccs2)c(=O)c2cc(F)c(N3CCNC(C)C3)c(F)c21 (stereo not given)	SF-268 CNS	79.1% (inactive)
Cc1ccc(/C=N/Nc2nc(Nc3ccccc3)nc(-n3nc(C)cc3C)n2)cc1	SF-268 CNS	44% (inactive)
CCOP(=O)(OCC)c1nc(-c2ccccc2)oc1NCc1cccnc1	SF-268 CNS	104% (inactive)
CC(C)(C)[Si](C)(C)O[C@H]1C(=O)C=CN2CC=C[C@@H]12	SF-268 CNS	101% [100 µM] (inactive)
O=C1/C(=C/c2ccc(F)cc2)COc2ccc(O)c(O)c21	SF-268 CNS	13.1% (inactive)
N#Cc1cccc(NC(=O)c2oc3ccccc3c2-c2cnn(-c3ccccc3)c2)c1	SF-268 CNS	92.4% [50 µM] (inactive)

* * *

Tested on: CCRF-CEM leukemia
Experiment: NCI-60 one-dose screen, 48 h (100 = growth as untreated, 0 = no growth, -100 = all killed)
Conditions: 10 µM unless noted
The panel holds about 83,000 compounds, 20% with a hit somewhere; the sample as a whole holds those more often.
The compounds listed here are annotated with their growth.
quantity: growth (%)

compound	measurement
COc1ccc(/C=C2\COc3ccc(O)c(O)c3C2=O)cc1	7.73
c1cc2[nH]ncc2cc1-c1nc2ccc3[nH]ncc3c2c2c1CCCC2	9.05
Oc1c(Cl)cc(Cl)cc1/C=N/Nc1nnc(N/N=C/c2cc(Cl)cc(Cl)c2O)c2ccccc12	14
C/C(Nc1ccc(Cl)c(Cl)c1)=C1\CCOC1=O	81.5
O=C1/C(=C/c2ccc(Cl)cc2)COc2ccc(O)c(O)c21	4.29
CO/N=C(/C)c1ccc(NC(=O)CSc2nnc(-c3ccncc3)n2-c2ccccc2)cc1	91.6
CCOC(=O)Cn1c(O)c(N=Nc2ccc(S(N)(=O)=O)cc2)c2cc(Br)ccc21	53.4
CC(C)N1CN2C(=S)NC3C2N(C1)C(=S)N3C (configuration not stated)	94.8
C=C1C(=O)O[C@H]2[C@H]1CC/C(COC(=O)CSCCSCC(=O)OC/C1=C/CC[C@@]3(C)O[C@H]3[C@H]3OC(=O)C(=C)[C@@H]3CC1)=C\CC[C@@]1(C)O[C@@H]21	-41.5
C=C(C)[C@@H]1CC[C@]2(C(=O)NCCNCCN)CC[C@]3(C)[C@H](CC[C@@H]4[C@@]5(C)C/C(=C/c6ccncc6)C(=O)C(C)(C)[C@@H]5CC[C@]43C)[C@@H]12	97.1
O=C(NNc1nccc(Nc2ccc(S(=O)(=O)Nc3ccncc3)cc2)n1)c1ccccc1	111
COc1cc(CNS(=O)(=O)c2ccc(C)cc2)ccc1OCc1cn(-c2ccc(F)cc2)nn1	79.9
OCc1cccc(-c2ccc3ncc(-c4nc(NC5CC5)ncc4F)n3c2)c1	-2
CCc1ccc(C(=O)/C=C/C23c4ccccc4C(c4ccccc42)C2C(=O)NC(=O)C23)cc1 (configuration not stated)	0.462
CCN1CC(=O)N(/N=C2\C(=O)Nc3ccccc32)C1=S	102
CCCNC(=O)Oc1ccc(/C(=C(/C)Cc2ccc(OC)cc2)c2ccc(OCCCN(C)C)cc2)cc1	56.4
CC[C@@H](C(=O)[C@@H](C)[C@@H](O)[C@H](C)[C@@H]1O[C@@H]([C@@H](CC)C(=O)NCCc2ccc(F)cc2)CC[C@@H]1C)C1O[C@]2(C=CC(=O)[C@]3(CC[C@@](C)([C@H]4CC[C@](O)(CC)[C@H](C)O4)O3)O2)[C@H](C)C[C@@H]1C (some centres not stated)	40.1
